// IC50 collected for purified human HDAC6 (Homo sapiens, UniProt Q9UBN7)
READOUT_TYPE: IC50

>  <COMPOUND>
C[C@@H](NC(=O)C12CC3CC(CC(C3)C1)C2)c1ncc(C(=O)NO)s1 [Compound I-172]

>  <RESULT>
> 500 nM

$$$$
>  <COMPOUND>
C[C@@H](NC(=O)c1cccn1C)c1ccc(C(=O)NO)s1 [Compound I-29]

>  <RESULT>
< 100 nM

$$$$
>  <COMPOUND>
CC(NC(=O)NC(C)c1ccc(C(=O)NO)s1)c1ccccc1 (stereo not drawn) [Compound I-28]

>  <RESULT>
100 to 500 nM

$$$$
>  <COMPOUND>
Cc1nc(-c2ccccn2)sc1C(=O)N[C@H](C)c1ncc(C(=O)NO)s1 [Compound I-167]

>  <RESULT>
< 100 nM

$$$$
>  <COMPOUND>
CC(NC(=O)Nc1ccc(F)cc1)c1ccc(C(=O)NO)s1 (stereo not drawn) [Compound I-2]

>  <RESULT>
< 100 nM

$$$$
>  <COMPOUND>
CC(NC(=O)c1cc2ccccc2n1C)c1ncc(C(=O)NO)s1 (stereo not drawn) [Compound I-51]

>  <RESULT>
< 100 nM

$$$$
>  <COMPOUND>
C[C@@H](NC(=O)c1cccn1C)c1ncc(C(=O)NO)s1 [Compound I-174]

>  <RESULT>
100 to 500 nM

$$$$
>  <COMPOUND>
CC(NC(=O)Nc1ccccc1Oc1ccccc1)c1ccc(C(=O)NO)s1 (stereo not drawn) [Compound I-44]

>  <RESULT>
< 100 nM

$$$$
>  <COMPOUND>
C[C@@H](NC(=O)C(C)(C)C)c1ccc(C(=O)NO)s1 [Compound I-6]

>  <RESULT>
> 500 nM

$$$$

====

Target: purified human HDAC6 (Homo sapiens)
Sequence (Q9UBN7 1-1215): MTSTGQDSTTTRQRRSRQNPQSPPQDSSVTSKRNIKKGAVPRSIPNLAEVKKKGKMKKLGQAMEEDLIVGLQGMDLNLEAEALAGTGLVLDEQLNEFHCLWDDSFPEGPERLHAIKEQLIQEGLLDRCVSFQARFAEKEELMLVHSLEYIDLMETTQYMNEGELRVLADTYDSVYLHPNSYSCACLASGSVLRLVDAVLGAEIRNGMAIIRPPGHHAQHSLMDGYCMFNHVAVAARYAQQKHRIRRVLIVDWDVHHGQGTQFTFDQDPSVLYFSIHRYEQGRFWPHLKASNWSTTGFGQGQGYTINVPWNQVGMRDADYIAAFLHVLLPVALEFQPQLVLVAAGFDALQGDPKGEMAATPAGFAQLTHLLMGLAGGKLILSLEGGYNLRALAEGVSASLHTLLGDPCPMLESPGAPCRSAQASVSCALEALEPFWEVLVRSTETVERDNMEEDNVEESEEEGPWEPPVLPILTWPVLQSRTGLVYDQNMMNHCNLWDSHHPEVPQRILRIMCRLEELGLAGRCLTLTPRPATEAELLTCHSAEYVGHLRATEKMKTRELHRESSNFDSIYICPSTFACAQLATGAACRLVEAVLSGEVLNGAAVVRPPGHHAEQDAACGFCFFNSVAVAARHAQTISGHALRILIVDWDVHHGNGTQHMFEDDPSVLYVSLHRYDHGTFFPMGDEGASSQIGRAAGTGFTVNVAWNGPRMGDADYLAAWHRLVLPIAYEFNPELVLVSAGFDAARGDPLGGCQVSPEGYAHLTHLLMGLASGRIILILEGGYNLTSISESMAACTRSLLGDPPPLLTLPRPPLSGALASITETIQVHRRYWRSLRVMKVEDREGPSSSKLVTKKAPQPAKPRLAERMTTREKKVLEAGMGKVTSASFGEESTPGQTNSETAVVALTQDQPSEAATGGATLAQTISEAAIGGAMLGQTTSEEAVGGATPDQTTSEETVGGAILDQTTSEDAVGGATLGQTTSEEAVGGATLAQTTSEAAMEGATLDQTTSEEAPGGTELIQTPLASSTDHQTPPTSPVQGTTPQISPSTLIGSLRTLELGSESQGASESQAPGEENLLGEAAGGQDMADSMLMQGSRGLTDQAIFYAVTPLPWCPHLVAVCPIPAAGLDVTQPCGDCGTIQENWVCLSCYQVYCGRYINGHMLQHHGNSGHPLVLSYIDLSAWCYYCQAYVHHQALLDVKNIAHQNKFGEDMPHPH

>  <COMPOUND>
CC(NC(=O)Nc1ccc(OC(F)(F)F)cc1)c1ccc(C(=O)NO)s1 (centres unmarked)

>  <IC50>
< 100 nM

$$$$
>  <COMPOUND>
CC(NC(=O)NC1CCCCC1)c1ccc(C(=O)NO)s1 (centres unmarked)

>  <IC50>
100 to 500 nM

$$$$
>  <COMPOUND>
Cc1ccccc1CNC(=O)NC(C)c1ccc(C(=O)NO)s1 (centres unmarked)

>  <IC50>
< 100 nM

$$$$
>  <COMPOUND>
Cc1ccccc1NC(=O)NC(C)c1ccc(C(=O)NO)s1 (centres unmarked)

>  <IC50>
< 100 nM

$$$$
>  <COMPOUND>
C[C@H](NC(=O)c1cccn1C)c1ncc(C(=O)NO)s1

>  <IC50>
100 to 500 nM

$$$$
